- TARGET DESC: FXR (FXR HEK 293T DA cell line) (Homo sapiens)
- Construct: expressed in transfected cells; host or cells: HEK 293T (FXR HEK 293T DA)
- Sequence (Q96RI1 with tags, fused parts or gaps limits assumed): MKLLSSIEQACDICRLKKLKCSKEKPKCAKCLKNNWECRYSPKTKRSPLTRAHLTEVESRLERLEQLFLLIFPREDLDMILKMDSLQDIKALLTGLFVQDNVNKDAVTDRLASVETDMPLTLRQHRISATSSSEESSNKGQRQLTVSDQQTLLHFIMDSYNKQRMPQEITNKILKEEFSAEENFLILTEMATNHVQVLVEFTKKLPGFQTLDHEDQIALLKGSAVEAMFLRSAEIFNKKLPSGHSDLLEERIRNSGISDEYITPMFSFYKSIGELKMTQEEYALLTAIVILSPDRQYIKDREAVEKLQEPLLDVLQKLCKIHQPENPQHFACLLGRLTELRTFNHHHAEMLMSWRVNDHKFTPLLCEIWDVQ
- ASSAY NOTES: FXR cell experiment (β-lactamase reporter gene, GeneBLAzer);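 also: Emax relative to maximal signal of reference agonist chenodeoxycholic acid (CDCA)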
- Type: cell-based
- MEASUREMENT CONDITIONS: HEK-293T; read-out: FXR cell activity Efficacy
# Emax listing for each entry below

{"columns": ["MOLECULE", "Emax, %"],
 "data": [
  ["CC[C@H]1[C@@H](O)[C@@H]2[C@H](CC[C@]3(C)[C@@H]([C@H](C)CCOc4ncc(C(=O)O)cc4Cl)CC[C@@H]23)[C@@]2(C)CC[C@@H](O)C[C@@H]12", 150],
  ["CC[C@H]1[C@@H](O)[C@@H]2[C@H](CC[C@]3(C)[C@@H]([C@H](C)CCN4CC(C(=O)O)CCC4=O)CC[C@@H]23)[C@@]2(C)CC[C@@H](O)C[C@@H]12 (some centres unmarked)", 134],
  ["CC[C@H]1[C@@H](O)[C@@H]2[C@H](CC[C@]3(C)[C@@H]([C@H](C)CCCn4cc(C(=O)O)ccc4=O)CC[C@@H]23)[C@@]2(C)CC[C@@H](O)C[C@@H]12", 131],
  ["CC[C@H]1[C@@H](O)[C@@H]2[C@H](CC[C@]3(C)[C@@H]([C@H](C)CCOc4cc(C(=O)O)ccn4)CC[C@@H]23)[C@@]2(C)CC[C@@H](O)C[C@@H]12", 130],
  ["CC[C@H]1[C@@H](O)[C@@H]2[C@H](CC[C@]3(C)[C@@H]([C@H](C)CCn4cc(C(=O)O)ccc4=O)CC[C@@H]23)[C@@]2(C)CC[C@@H](O)C[C@@H]12", 190],
  ["CC[C@H]1[C@@H](O)[C@@H]2[C@H](CC[C@]3(C)[C@@H]([C@H](C)CCOc4cccc(C(=O)O)c4)CC[C@@H]23)[C@@]2(C)CC[C@@H](O)C[C@@H]12", 140],
  ["CC[C@H]1[C@@H](O)[C@@H]2[C@H](CC[C@]3(C)[C@@H]([C@H](C)CCc4cccc(C(=O)O)c4)CC[C@@H]23)[C@@]2(C)CC[C@@H](O)C[C@@H]12", 143],
  ["CC[C@H]1[C@@H](O)[C@@H]2[C@H](CC[C@]3(C)[C@@H]([C@H](C)CCn4ccc(C(=O)O)cc4=O)CC[C@@H]23)[C@@]2(C)CC[C@@H](O)C[C@@H]12", 132]
]}
